Data provenance is patent US11512053B2.

target: UniProt:Q96LA8; test: PRMT6 Biochemical Assay (3H-SAM Flashplate, peptide substrate); conditions: single experiment or average of multiple experiments; read-out: Biochemical IC50 PRMT6
pIC50: −log10 of the molar value.
readout-kind: pIC50

compound: CCOC1CC2(CCC(c3n[nH]cc3CN(C)CCNC)CC2)CC1OCC (centres unmarked) [Compound 168]
pIC50: 7.35

compound: CNCCN(C)Cc1c[nH]nc1[C@H]1CC[C@@H](N(CCC(C)C)C(=O)CCCOC)CC1 [Compound 237]
pIC50: 7.39

compound: CNCCN(C)Cc1c[nH]nc1[C@H]1CC[C@@H](N(CCCOC)C(=O)CC(C)C)CC1 [Compound 242]
pIC50: 7.38

compound: CNCCN(C)Cc1c[nH]nc1C1CCC2(CC1)CCN(C)C2=O (centres unmarked) [Compound 152]
pIC50: 7.45

----------
biological target: full-length human PRMT6 (Flag- and His-tagged) (Homo sapiens); assay: PRMT6 Biochemical Assay (3H-SAM Flashplate, peptide substrate); conditions: single experiment or average of multiple experiments; read-out: Biochemical IC50 PRMT6
Sequence (Q96LA8 with tags, fused parts or gaps): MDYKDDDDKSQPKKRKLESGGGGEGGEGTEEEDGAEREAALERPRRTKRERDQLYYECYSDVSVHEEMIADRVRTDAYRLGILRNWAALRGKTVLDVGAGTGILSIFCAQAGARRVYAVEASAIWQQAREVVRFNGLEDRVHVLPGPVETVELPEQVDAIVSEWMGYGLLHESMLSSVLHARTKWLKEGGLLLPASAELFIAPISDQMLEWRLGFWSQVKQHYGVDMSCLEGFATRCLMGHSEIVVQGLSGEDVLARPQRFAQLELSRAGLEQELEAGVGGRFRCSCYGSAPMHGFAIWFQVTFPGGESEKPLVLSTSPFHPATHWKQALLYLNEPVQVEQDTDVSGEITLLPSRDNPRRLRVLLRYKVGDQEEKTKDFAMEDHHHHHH
pIC50: −log10 of the molar value.
readout-kind: pIC50

molecule: CNCCN(C)Cc1c[nH]nc1[C@H]1CC[C@@]2(CCN(CC(C)C)C2=O)CC1 [Compound 129]
meas-value: 7.53

molecule: CN(CCN)Cc1c[nH]nc1/C=C/c1ccc(F)cc1F [Compound 13]
meas-value: 8.00

molecule: CCN(C(=O)CCOc1ccccc1)[C@H]1CC[C@H](c2n[nH]cc2CN(C)CCNC)CC1 [Compound 225]
meas-value: 7.93

molecule: CNCCN(C)Cc1c[nH]nc1[C@H]1CC[C@@]2(CCN(Cc3ccccc3)C2=O)CC1 [Compound 127]
meas-value: 7.65

molecule: CNCCN(C)Cc1c[nH]nc1C1CCC(C)(C)C(O)C1 (centres unmarked) [Compound 185]
meas-value: 7.45

A: CNCCN(C)Cc1n[nH]cc1[C@H]1CC[C@H](C(=O)NCCC(C)C)CC1 [Compound 203]
B: CNCCN(C)Cc1c[nH]nc1[C@H]1CC[C@]2(CCN(Cc3ccccc3)C2=O)CC1 [Compound 128]
C: CNCCN(C)Cc1c[nH]nc1C1CCC(C)(C)C(C(=O)NCCC(C)C)C1 (centres unmarked) [Compound 91]
// smallest pIC50 at index 0, largest at the end # list labels per requested ordering C, A, B
(C: 7.20, A: 7.43, B: 7.88)

I: CNCCN(C)Cc1c[nH]nc1[C@H]1CC[C@]2(CCC(C)(C)O2)CC1 [Compound 104]
II: CNCCN(C)Cc1c[nH]nc1[C@H]1CC[C@H](N(CCCOC)C(=O)CCOc2ccccc2)CC1 [Compound 247]
Of I versus II , which is the one with smaller reported pIC50? Respond using the label that marks the chosen record. I

a: COc1cc(/C=C/c2n[nH]cc2CN(C)CCN)cc(OC)c1 [Compound 11]
b: CNCCN(C)Cc1c[nH]nc1[C@H]1CC[C@@H](C(=O)N(C)CC(C)C)CC1 [Compound 215]
Looking at a and b , which one comes out lower in pIC50 terms? Mark your selection by writing its label. a

----------
target: full-length human PRMT8 isoform 1 (Homo sapiens, UniProt Q9NR22); assay: PRMT8 Biochemical Assay (3H-SAM Flashplate, peptide substrate); details: single experiment or average of multiple experiments; read-out: Biochemical IC50 PRMT8
Sequence (Q9NR22 whole entry, canonical isoform): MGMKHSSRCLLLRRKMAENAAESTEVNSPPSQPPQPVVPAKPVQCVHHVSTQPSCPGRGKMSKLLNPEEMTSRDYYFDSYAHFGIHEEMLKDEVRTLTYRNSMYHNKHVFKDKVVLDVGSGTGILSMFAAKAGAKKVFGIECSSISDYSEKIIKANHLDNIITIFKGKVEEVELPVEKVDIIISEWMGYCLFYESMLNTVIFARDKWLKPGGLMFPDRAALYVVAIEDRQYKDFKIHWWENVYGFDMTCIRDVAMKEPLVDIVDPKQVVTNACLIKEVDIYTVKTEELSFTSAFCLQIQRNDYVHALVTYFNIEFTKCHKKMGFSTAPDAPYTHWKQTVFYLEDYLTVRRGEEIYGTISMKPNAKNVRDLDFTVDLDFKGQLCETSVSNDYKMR
readout-kind: IC50 (nM)

compound: CCOC[C@H]1CC(c2n[nH]cc2CN(C)CCNC)C[C@H](COCC)C1 (stereo partly drawn)
measured-on: full-length human PRMT8 isoform 1 (Homo sapiens, UniProt Q9NR22)
readout-kind: IC50
meas-value: 1540
--
compound: CNCCN(C)Cc1c[nH]nc1C1CC(OCC(C)C)CC(OCC(C)C)C1 (stereo not drawn)
measured-on: full-length human PRMT8 isoform 1 (Homo sapiens, UniProt Q9NR22)
readout-kind: IC50
meas-value: 8370
--
compound: CNCCN(C)Cc1c[nH]nc1C1CCC2(CC1)CCN(CCC(C)C)C2=O (stereo not drawn)
measured-on: full-length human PRMT8 isoform 1 (Homo sapiens, UniProt Q9NR22)
readout-kind: IC50
meas-value: 15.8
--
compound: CNCCN(C)Cc1c[nH]nc1[C@H]1CC[C@@H](N(CCOc2ccccc2)C(=O)CCCOC)CC1
measured-on: full-length human PRMT8 isoform 1 (Homo sapiens, UniProt Q9NR22)
readout-kind: IC50
meas-value: 100
--
compound: CNCCN(C)Cc1c[nH]nc1C1CCC(=O)N(CCCOC)C1 (stereo not drawn)
measured-on: full-length human PRMT8 isoform 1 (Homo sapiens, UniProt Q9NR22)
readout-kind: IC50
meas-value: 352

I: CNCCN(C)Cc1c[nH]nc1[C@H]1CC[C@]2(CCN(Cc3ccc(F)cc3)C2=O)CC1
II: CNCCN(C)Cc1c[nH]nc1[C@H]1CC[C@@H](O)C2(CCCCC2)C1 (single isomer, unassigned)
III: CNCCN(C)Cc1c[nH]nc1C1CCC2(CCCC2)CC1
IV: CN(CCN)Cc1n[nH]cc1C1CCCCC1
V: CNCCN(C)Cc1c[nH]nc1[C@H]1CC[C@H](N(CCCOC)C(=O)CCOc2ccccc2)CC1
Rank descending by IC50. // list labels; follow requested order IV, II, I, V, III

I: CNCCN(C)Cc1c[nH]nc1[C@H]1CC[C@H](N(CC2CCOCC2)C(=O)CC(C)C)CC1
II: CNCCN(C)Cc1c[nH]nc1C1CCC2(CC1)OC(C)CC(C)O2 (stereo not drawn)
Hi, I'm comparing I with II and wondering which one has the bigger number for IC50. Any idea? When you have decided, please share the label of that item. I
(I: 459 nM, II: 32.6 nM)

P: CNCCN(C)Cc1c[nH]nc1C1CCC(Oc2ccccc2)CC1 (stereo not drawn)
Q: CCC(=O)N(CC1CCOCC1)[C@H]1CC[C@H](c2n[nH]cc2CN(C)CCNC)CC1
R: COc1cccc(/C=C/c2n[nH]cc2CN(C)CCN)c1
Put the items in sequence by IC50, from largest down. Ranked list of labels, please, in the requested order. R, Q, P

A: CNCCN(C)Cc1cn(C)nc1C1CCC2(CCCC2)CC1
B: CNCCN(C)Cc1c[nH]nc1[C@H]1CC[C@@H](N(CCOc2ccccc2)C(=O)CC(C)C)CC1
Between these two entries, A and B , state which has the higher IC50. Provide the label of your selected option as the answer. B
(B: 90 nM, A: 12.5 nM)
